organism: Homo sapiens; assay: Concentration of inhibitor in human plasma required to double the activated partial thromboplastin time; type: functional
So basically, if 2*APTT comes in under 0.5 µM it's YES, and if it's 0.5 µM or more it's NO.

Some solved entries appear below for comparison.
# compound, category
rows = [
    ("O=C1COc2ccc(Cl)cc2CNC(=O)[C@@H]2CCCN2C(=O)C(C2CCCCC2)NC(=O)CCN1 (some centres undefined)", "YES"),
    ("CN1CCCCCOc2ccc(Cl)cc2CNC(=O)Cn2c(Cl)cnc(c2=O)N[C@@H](Cc2ccccc2)C1", "NO"),
    ("O=C1Cn2c(Cl)cnc(c2=O)N[C@@H](Cc2ccccc2)CNCCCCOc2ccc(Cl)cc2CN1", "NO"),
    ("O=C1Cn2c(Cl)cnc(c2=O)N[C@@H](Cc2ccccc2)CNCCCCNCc2ccccc2CN1", "YES"),
    ("O=C1COc2ccc(Cl)cc2CNC(=O)[C@@H]2CCCN2C(=O)[C@@H](C2CCCCC2)NC(=O)CCCCN1", "YES"),
]

Problem: For the compound "O=C1Cn2c(Cl)cnc(c2=O)N[C@@H](Cc2ccccc2)NCCCCCCOc2ccc(Cl)cc2CN1" , is 2*APTT under 0.5 µM? NO

Can you handle "O=C1Cn2c(Cl)cnc(c2=O)N[C@@H](Cc2ccccc2)CNCCOCCOc2ccccc2CN1" next? YES

Can you handle "O=C1Cn2c(Cl)cnc(c2=O)N[C@@H](Cc2ccccc2)CNCCCCCOc2ccc(Cl)cc2CN1" next? NO

====

# Serine protease 1 (Homo sapiens): pKi values follow
# Sequence (P07477 whole entry): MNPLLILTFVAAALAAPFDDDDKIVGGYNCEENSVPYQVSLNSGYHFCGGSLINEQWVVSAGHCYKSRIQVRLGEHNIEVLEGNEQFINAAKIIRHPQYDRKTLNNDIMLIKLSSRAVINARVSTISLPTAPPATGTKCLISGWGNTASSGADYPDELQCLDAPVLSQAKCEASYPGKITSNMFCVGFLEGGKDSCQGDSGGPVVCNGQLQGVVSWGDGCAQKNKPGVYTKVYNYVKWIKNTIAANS
pKi is defined as minus the log10 of a concentration measured in mol/L.

Examples from the recorded data:
# smilesStructure, pKi
rows = [
    ("O=C1Cn2c(Cl)cnc(c2=O)N[C@@H](Cc2ccccc2)CNCCCCNCc2ccccc2CN1", 4.39),
    ("O=C1Cn2c(Cl)cnc(c2=O)N[C@@H](Cc2ccccc2)CNCCOCCOc2ccc(Cl)cc2CN1", 6.96),
    ("O=C1Cn2c(Cl)cnc(c2=O)N[C@@H](Cc2ccccc2)CNC(=O)OC/C=C\\COc2ccc(Cl)cc2CN1", 6.96),
    ("O=C1Cn2c(Cl)cnc(c2=O)N[C@@H](Cc2ccccc2)CNCCCCOc2ccc(Cl)cc2CN1", 7.05),
    ("O=C1COc2ccc(Cl)cc2CNC(=O)[C@@H]2CCCN2C(=O)[C@@H](C2CCCCC2)NC(=O)CCCCN1", 5.11),
]

Look up pKi: "O=C1Cn2c(Cl)cnc(c2=O)N[C@@H](Cc2ccccc2)CNCCOCCOc2ccccc2CN1" 5.34

Can you handle "CN1CCCCCOc2ccc(Cl)cc2CNC(=O)Cn2c(Cl)cnc(c2=O)N[C@@H](Cc2ccccc2)C1" next? 7.40

Can you handle "O=C1Cn2c(Cl)cnc(c2=O)N[C@@H](Cc2ccccc2)CNC(=O)OC/C=C/COc2ccc(Cl)cc2CN1" next? 6.24

Can you handle "O=C1Cn2c(Cl)cnc(c2=O)N[C@@H](Cc2ccccc2)CNC(=O)OCCCCOc2ccc(Cl)cc2CN1" next? 5.40

Can you handle "O=C1COc2ccc(Cl)cc2CNC(=O)[C@@H]2CCCN2C(=O)[C@@H](C2CCCCC2)NC(=O)CN1" next? 5.03

====

# Prothrombin (Homo sapiens): pKi values follow
pKi is defined as minus the log10 of a concentration measured in mol/L.

# smilesStructure, systemUnderTest, reportedValue
data = [
    ("CCN(CC)C(=O)CN[C@H](C(=O)N1CCC[C@H]1C(=O)NCc1cc(Cl)ccc1Cl)C1CCCCC1", "Prothrombin (Homo sapiens)", 9.51),
]

Look up pKi: "O=C1Cn2c(Cl)cnc(c2=O)N[C@@H](Cc2ccccc2)CNC(=O)OC/C=C/COc2ccc(Cl)cc2CN1" 9.77

Can you handle "O=C1Cn2c(Cl)cnc(c2=O)N[C@@H](Cc2ccccc2)CNC(=O)OCCCCOc2ccc(Cl)cc2CN1" next? 9.20

Can you handle "CCNC(=O)Oc1ccc(Cl)cc1CNC(=O)[C@@H]1CCCN1C(=O)[C@@H](N)C1CCCCC1" next? 9.13

====

Reported Ki values follow for various compounds
target: Prothrombin (Homo sapiens)
Just the number please, in pM, no unit attached.

# smilesStructure, quantityName, reportedValue
measured = [
    ("O=C1COc2ccc(Cl)cc2CNC(=O)[C@@H]2CCCN2C(=O)[C@@H](C2CCCCC2)NC(=O)CCCN1", "Ki", 400),
    ("CN1CCOc2ccccc2CNC(=O)Cn2c(Cl)cnc(c2=O)N[C@@H](Cc2ccccc2)CNC(=O)C1", "Ki", 3000),
    ("O=C1COc2ccc(Cl)cc2CNC(=O)[C@@H]2CCCN2C(=O)[C@@H](C2CCCCC2)NC(=O)CCCCN1", "Ki", 1300),
]

Look up Ki: "O=C1Cn2c(Cl)cnc(c2=O)N[C@@H](Cc2ccccc2)CNC(=O)OC/C=C\COc2ccc(Cl)cc2CN1" 60

====

Reported pKi values follow for various compounds
molecular target: Prothrombin (Homo sapiens); experiment: Inhibitory activity against thrombin IIa
pKi is defined as minus the log10 of a concentration measured in mol/L.

Examples from the recorded data:
# smilesStructure, quantityName, reportedValue
data = [
    ("O=C1Cn2c(Cl)cnc(c2=O)N[C@@H](Cc2ccccc2)CNCCCOc2ccc(Cl)cc2CN1", "pKi", 7.59),
    ("N[C@H](C(=O)N1CCC[C@H]1C(=O)NCc1cc(Cl)ccc1Cl)C1CCCCC1", "pKi", 8.30),
]

Look up pKi: "O=C1Cn2c(Cl)cnc(c2=O)N[C@@H](Cc2ccccc2)CNCCCCOc2ccc(Cl)cc2CN1" 9.70

Can you handle "O=C1Cn2c(Cl)cnc(c2=O)N[C@@H](Cc2ccccc2)CNCCCCNCc2ccccc2CN1" next? 9.29

Can you handle "CN1CCCCCOc2ccc(Cl)cc2CNC(=O)Cn2c(Cl)cnc(c2=O)N[C@@H](Cc2ccccc2)C1" next? 10.70

Can you handle "O=C1Cn2c(Cl)cnc(c2=O)N[C@@H](Cc2ccccc2)CNCCOCCOc2ccc(Cl)cc2CN1" next? 10.30

====

organism: Homo sapiens; assay: Concentration of inhibitor in human plasma required to double the activated partial thromboplastin time; type: functional
So basically, if 2*APTT comes in under 0.6 µM it's YES, and if it's 0.6 µM or more it's NO.

Some solved entries appear below for comparison.
# smilesStructure, category
records = [
    ("O=C1Cn2c(Cl)cnc(c2=O)N[C@@H](Cc2ccccc2)CNC(=O)OC/C=C\\COc2ccc(Cl)cc2CN1", "NO"),
    ("O=C1COc2ccc(Cl)cc2CNC(=O)[C@@H]2CCCN2C(=O)[C@@H](C2CCCCC2)NC(=O)CCCN1", "YES"),
    ("O=C1Cn2c(Cl)cnc(c2=O)N[C@@H](Cc2ccccc2)CNC(=O)OC/C=C/COc2ccc(Cl)cc2CN1", "NO"),
    ("O=C1Cn2c(Cl)cnc(c2=O)N[C@@H](Cc2ccccc2)CNC(=O)OCCCCOc2ccc(Cl)cc2CN1", "NO"),
    ("O=C1Cn2c(Cl)cnc(c2=O)N[C@@H](Cc2ccccc2)CNCCCNCCc2ccccc2CN1", "YES"),
]

Problem: For the molecule "O=C1COc2ccc(Cl)cc2CNC(=O)[C@@H]2CCCN2C(=O)[C@@H](C2CCCCC2)NC(=O)CN1" , is 2*APTT under 0.6 µM? NO

Can you handle "O=C1Cn2c(Cl)cnc(c2=O)N[C@@H](Cc2ccccc2)CNCCOCCOc2ccc(Cl)cc2CN1" next? YES
